target: Dual specificity mitogen-activated protein kinase kinase 5 (Homo sapiens, UniProt Q13163); also: in the data inactive means no Kd found up to 30 µM
Sequence (Q13163 whole entry): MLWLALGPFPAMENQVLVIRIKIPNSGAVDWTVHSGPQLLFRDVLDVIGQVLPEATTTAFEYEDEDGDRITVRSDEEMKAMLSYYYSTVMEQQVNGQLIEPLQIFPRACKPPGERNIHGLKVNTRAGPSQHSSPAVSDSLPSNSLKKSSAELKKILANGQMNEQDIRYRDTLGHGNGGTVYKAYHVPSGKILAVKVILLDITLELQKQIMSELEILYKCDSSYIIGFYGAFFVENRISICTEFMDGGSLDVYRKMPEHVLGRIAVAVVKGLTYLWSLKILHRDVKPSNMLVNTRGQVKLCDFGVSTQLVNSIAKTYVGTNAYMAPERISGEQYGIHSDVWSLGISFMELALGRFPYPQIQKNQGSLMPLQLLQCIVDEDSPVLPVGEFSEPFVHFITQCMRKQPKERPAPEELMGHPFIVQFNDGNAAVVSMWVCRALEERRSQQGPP
Calls of active or inactive are those of the source.
Select the matching outcome among TRUE = active, FALSE = inactive

Record excerpt, results attached:
smi: CN1C/C=C/CCOc2cccc(c2)-c2ccnc(n2)Nc2cccc(c2)C1
target_under_test: Dual specificity mitogen-activated protein kinase kinase 5 (Homo sapiens, UniProt Q13163); also: in the data inactive means no Kd found up to 30 µM
classification: FALSE

smi: CNC(=O)c1nn(C)c2c1C(C)(C)Cc1cnc(Nc3ccc(N4CCN(C)CC4)cc3)nc1-2
target_under_test: Dual specificity mitogen-activated protein kinase kinase 5 (Homo sapiens, UniProt Q13163); also: in the data inactive means no Kd found up to 30 µM
classification: FALSE

smi: C#Cc1cccc(Nc2ncnc3cc(OC)c(OCCCCCCC(=O)NO)cc23)c1
target_under_test: Dual specificity mitogen-activated protein kinase kinase 5 (Homo sapiens, UniProt Q13163); also: in the data inactive means no Kd found up to 30 µM
classification: FALSE

Recorded test outcome, item O=C(Nc1cc(C(F)(F)F)cc(C(F)(F)F)c1)c1cc(Cl)ccc1O FALSE

Also, C=CC(=O)N1CCC[C@H](n2c(=O)n(-c3ccc(Oc4ccccc4)cc3)c3c(N)ncnc32)C1 please. FALSE

Also, CO[C@H]1C[C@@H]2CC[C@@H](C)[C@@](O)(O2)C(=O)C(=O)N2CCCC[C@H]2C(=O)O[C@H]([C@H](C)C[C@@H]2CC[C@@H](OC(=O)C(C)(CO)CO)[C@H](OC)C2)CC(=O)[C@H](C)/C=C(\C)[C@@H](O)[C@@H](OC)C(=O)[C@H](C)C[C@H](C)/C=C/C=C/C=C/1C please. FALSE

Also, CCn1cc(-c2ccnc3[nH]c(-c4cccc(CN(C)C)c4)cc23)c(-c2ccc(NC(=O)N(C)C)cc2)n1 please. TRUE

* * *

target: Cyclin-dependent kinase 5 (Homo sapiens, UniProt Q00535); also: in the data inactive means no Kd found up to 30 µM
Sequence (Q00535 whole entry): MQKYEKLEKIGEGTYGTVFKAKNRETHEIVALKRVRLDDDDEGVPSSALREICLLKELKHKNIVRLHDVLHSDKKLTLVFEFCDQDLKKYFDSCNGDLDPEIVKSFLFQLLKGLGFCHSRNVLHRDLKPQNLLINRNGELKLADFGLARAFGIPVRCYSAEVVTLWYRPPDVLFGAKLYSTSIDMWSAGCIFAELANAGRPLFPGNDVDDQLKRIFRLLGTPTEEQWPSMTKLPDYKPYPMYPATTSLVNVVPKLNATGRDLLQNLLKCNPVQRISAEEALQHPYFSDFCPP
Calls of active or inactive are those of the source.
Select the matching outcome among t = active, f = inactive

Record excerpt, results attached:
smi: Cn1cnc2c(F)c(Nc3ccc(Br)cc3F)c(C(=O)NOCCO)cc21
classification: f
//
smi: O=C(Nc1nc2cccc(-c3ccc(CN4CCS(=O)(=O)CC4)cc3)n2n1)C1CC1
classification: f
//
smi: NC(=O)Nc1cc(-c2cccc(F)c2)sc1C(=O)N[C@H]1CCCNC1
classification: f
//
smi: O=C(Cc1ccc(-c2ccc(OCCN3CCOCC3)cc2)cn1)NCc1ccccc1
classification: f
//
smi: C[C@@H](NC(=O)c1ncnc(N)c1Cl)c1ncc(C(=O)Nc2cc(C(F)(F)F)c(Cl)cn2)s1
classification: f
//
smi: CC(C)(C)c1nc(-c2cccc(NS(=O)(=O)c3c(F)cccc3F)c2F)c(-c2ccnc(N)n2)s1
classification: t
//
smi: Cc1nc2cc(-n3ncc(C(=O)c4cc5ccccc5[nH]4)c3N)ccc2[nH]1
classification: f

// next entry
Recorded test outcome, item C=CC(=O)N1CCC[C@H](n2c(=O)n(-c3ccc(Oc4ccccc4)cc3)c3c(N)ncnc32)C1 f

* * *

target: MAP/microtubule affinity-regulating kinase 4 (Homo sapiens, UniProt Q96L34); also: in the data inactive means no Kd found up to 30 µM
Sequence (Q96L34 whole entry): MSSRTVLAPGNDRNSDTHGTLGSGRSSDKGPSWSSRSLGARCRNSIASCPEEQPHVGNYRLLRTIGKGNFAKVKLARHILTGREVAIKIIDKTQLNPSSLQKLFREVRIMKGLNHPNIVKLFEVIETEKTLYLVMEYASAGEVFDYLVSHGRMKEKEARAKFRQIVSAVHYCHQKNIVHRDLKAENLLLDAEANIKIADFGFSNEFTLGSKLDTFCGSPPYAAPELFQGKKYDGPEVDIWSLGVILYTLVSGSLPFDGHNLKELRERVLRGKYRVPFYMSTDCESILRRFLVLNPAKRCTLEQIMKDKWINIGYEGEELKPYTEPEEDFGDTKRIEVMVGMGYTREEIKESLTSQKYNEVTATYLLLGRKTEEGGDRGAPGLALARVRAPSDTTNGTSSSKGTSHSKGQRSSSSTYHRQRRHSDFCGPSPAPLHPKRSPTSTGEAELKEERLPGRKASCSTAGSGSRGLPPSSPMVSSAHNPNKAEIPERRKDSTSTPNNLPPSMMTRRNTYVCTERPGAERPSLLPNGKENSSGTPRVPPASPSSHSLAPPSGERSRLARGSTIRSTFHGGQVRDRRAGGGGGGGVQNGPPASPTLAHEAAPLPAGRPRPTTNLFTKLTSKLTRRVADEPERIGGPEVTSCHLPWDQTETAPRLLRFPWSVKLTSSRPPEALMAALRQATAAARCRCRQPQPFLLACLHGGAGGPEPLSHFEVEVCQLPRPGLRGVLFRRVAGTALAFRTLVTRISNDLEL
Activity calls are given as the source filed them.
Select the matching outcome among active, inactive

Record excerpt, results attached:
smi: COc1ncc(-c2ccc3nccc(-c4ccnnc4)c3c2)cc1NS(=O)(=O)c1ccc(F)cc1F
classification: inactive

smi: COc1ccc(S(=O)(=O)N(C(C)=O)c2ccccc2/C=C/c2cc[n+]([O-])cc2)cc1
classification: inactive

smi: NC(=O)Nc1cc(-c2cccc(F)c2)sc1C(=O)N[C@H]1CCCNC1
classification: active

// next entry
Recorded test outcome, item CC(C)c1cc(CNc2nc(Nc3cc(C4CC4)[nH]n3)cc(N3CCN(C)CC3)n2)on1 inactive
